- target system: ER in rat uterine cytosol (ERα) (Rattus norvegicus)
- Construct: The uterus was removed and homogenized in ice-cold TEGDMo buffer; from tissue; host or cells: uterine cytosol of castrated female Sprague Dawley rats
- Sequence (P06211 whole entry): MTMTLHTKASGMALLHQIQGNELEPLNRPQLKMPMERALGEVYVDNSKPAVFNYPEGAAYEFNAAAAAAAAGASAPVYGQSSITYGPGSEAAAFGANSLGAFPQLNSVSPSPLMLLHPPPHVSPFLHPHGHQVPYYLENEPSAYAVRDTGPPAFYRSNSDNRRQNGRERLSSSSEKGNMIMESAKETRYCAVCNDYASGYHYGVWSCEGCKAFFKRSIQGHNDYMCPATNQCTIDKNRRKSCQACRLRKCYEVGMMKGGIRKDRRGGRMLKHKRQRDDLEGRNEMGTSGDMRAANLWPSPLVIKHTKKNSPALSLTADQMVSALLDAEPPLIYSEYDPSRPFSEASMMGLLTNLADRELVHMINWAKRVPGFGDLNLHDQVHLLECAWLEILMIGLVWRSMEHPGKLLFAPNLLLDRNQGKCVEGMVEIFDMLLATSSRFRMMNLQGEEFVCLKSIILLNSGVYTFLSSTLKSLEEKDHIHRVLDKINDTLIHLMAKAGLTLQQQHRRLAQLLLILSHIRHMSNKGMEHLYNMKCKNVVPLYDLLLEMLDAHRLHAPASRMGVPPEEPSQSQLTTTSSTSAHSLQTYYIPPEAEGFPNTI
- test protocol: Competitive binding to the ER in rat uterine cytosol (RBA vs [3H]E2)
- experimental parameters: rat uterine estrogen receptor assay, E2 = 100; ± S.D.
Think of 7 as a floor: if ER RBA (relative binding affinity) stands on it or above, it is YES; beneath it, NO.

# record smiles, category
records = [
    ("COC(=O)C[C@@H]1C[C@H]2[C@@H]3CCc4cc(O)ccc4[C@H]3CC[C@]2(C)[C@H]1O", "NO"),
    ("C[C@]12CC[C@@H]3c4ccc(O)cc4CC[C@H]3[C@@H]1C[C@@H](CC(=O)O)[C@@H]2O", "NO"),
    ("C[C@]12CC[C@@H]3c4ccc(O)cc4CC[C@H]3[C@@H]1C[C@@H](CCC(=O)O)[C@@H]2O", "NO"),
    ("C[C@]12CC[C@@H]3c4ccc(O)cc4CC[C@H]3[C@@H]1C[C@@H](C(=O)OCCF)[C@@H]2O", "YES"),
    ("CCOC(=O)C[C@@H]1C[C@H]2[C@@H]3CCc4cc(O)ccc4[C@H]3CC[C@]2(C)[C@H]1O", "NO"),
]

Query block: Would you say C[C@]12CC[C@@H]3c4ccc(O)cc4CC[C@H]3[C@@H]1C[C@@H](C(=O)OCC(F)F)[C@@H]2O shows ER RBA (relative binding affinity) at minimum 7?
Result block: YES

Query block: Would you say CC(C)(C)COC(=O)[C@@H]1C[C@H]2[C@@H]3CCc4cc(O)ccc4[C@H]3CC[C@]2(C)[C@H]1O shows ER RBA (relative binding affinity) at minimum 7?
Result block: YES

Query block: Would you say CCOC(=O)[C@@H]1C[C@H]2[C@@H]3CCc4cc(O)ccc4[C@H]3CC[C@]2(C)[C@H]1O shows ER RBA (relative binding affinity) at minimum 7?
Result block: YES

// provenance: patent US6476012B2
